system: BV-2; test: Antineuroinflammatory activity in mouse BV2 cells assessed as inhibition of LPS-induced nitric oxide production after 24 hrs by Griess assay; format: functional, cell-based; details: BV-2, 24 h
Readings of IC50 for the listed compounds

smiles.code	reported.measurement
O=C(O)/C=C/c1ccc(O)cc1	> 50 µM
COc1cc(C(=O)O)cc(OC)c1O	> 50 µM
COc1cc([C@H](O)[C@@H]2COC(=O)[C@H]2Cc2ccc(O[C@@H]3O[C@H](CO)[C@@H](O)[C@H](O)[C@H]3O)c(OC)c2)ccc1O	> 50 µM
O=C(O)c1ccccc1	> 50 µM
COc1cc(C[C@@H]2C(=O)OC[C@H]2[C@@H](O[C@@H]2O[C@H](CO)[C@@H](O)[C@H](O)[C@H]2O)c2ccc(O)c(OC)c2)ccc1O	> 50 µM

Proceed to the following item.
Challenge: Query (compound): "COc1cc(C[C@@H]2C(=O)OC[C@H]2[C@@H](O)c2ccc(O[C@@H]3O[C@H](CO)[C@@H](O)[C@H](O)[C@H]3O)c(OC)c2)ccc1O" ; field requested: IC50
Response given: > 50 µM
